# experimentalTarget: MTHFD2 recombinant human enzyme (Homo sapiens, UniProt P13995)
# Sequence (P13995 36-350): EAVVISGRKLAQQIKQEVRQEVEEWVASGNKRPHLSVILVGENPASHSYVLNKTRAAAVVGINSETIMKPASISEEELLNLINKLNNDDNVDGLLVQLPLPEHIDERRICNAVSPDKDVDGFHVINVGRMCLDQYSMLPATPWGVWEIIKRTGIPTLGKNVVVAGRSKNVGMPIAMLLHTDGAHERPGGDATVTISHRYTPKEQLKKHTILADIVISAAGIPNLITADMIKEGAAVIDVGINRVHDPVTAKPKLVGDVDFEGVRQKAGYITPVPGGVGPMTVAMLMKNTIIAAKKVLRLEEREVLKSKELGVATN
# assayDetails: MTHFD2 inhibition assay (NAD(P)H-Glo luminescence)
# condition: selectivity of MTHFD2 inhibition over MTHFD1, band

# molecule, MTHFD1/MTHFD2 IC50 ratio
data = [
    ("COC[C@H]1CN(c2ccc3c4c(c(=O)oc3c2Cl)CN(C(=O)c2ccc(C(=O)NS(=O)(=O)N3CCCC3)c(O[C@@H]3C[C@@H]5C[C@@H]5C3)c2F)CC4)CCN1C [Example 62]", "F (<3)"),
    ("CCOc1c(C(=O)NS(=O)(=O)N2CCCCC2)ccc(C(=O)N2CCc3c(c(=O)oc4c(C)c(N5CCN(C)[C@@H](COC)C5)ccc34)C2)c1F [Example 198]", "F (<3)"),
    ("COC[C@H]1CN(c2cc(C)c3c4c(c(=O)oc3c2C)CN(C(=O)c2ccc(C(=O)NS(=O)(=O)N(C)C)c(OC3CCC(F)(F)CC3)c2F)CC4)CCN1C [Example 85]", "F (<3)"),
]
